Hello, the source for this data is BindingDB's records for doi:10.1021/acs.jmedchem.0c00337, in case you need it.

protocol.description: Reversal of Pgp-mediated DOX resistance in human SW620/AD300 cells assessed as potentiation of DOX-induced cytotoxicity by measuring DOX IC50 at 1 uM incubated for 48 hrs by SRB assay (Rvb = 33.39 +/- 7.08 uM)
The entries below come with measured IC50 values attached.
# unit: nM | format: bare number

**Query** Which IC50 is reported for this molecule? `COc1cc2c(cc1OC)CN(CCc1ccc(NC(=O)/C=C/c3ccc(Oc4c(I)cc(-c5ccccn5)cc4I)nc3)cc1)CC2`
**Result** 1180

**Query** # get_value(readout='IC50', item= `COc1cc2c(cc1OC)CN(CCc1ccc(NC(=O)/C=C/c3ccc(Oc4cccc(-c5ccccn5)c4)nc3)cc1)CC2` )
**Result** 750

**Query** Quick check: IC50 of `COc1cc2c(cc1OC)CN(CCc1ccc(NC(=O)/C=C/c3cccc(Oc4ccc(-c5ccccn5)cc4)n3)cc1)CC2` ?
**Result** 990

**Query** For the molecule shown here, `COc1cc2c(cc1OC)CN(CCc1ccc(NC(=O)/C=C/c3ccc(Oc4ccc(-c5ccccn5)c(C#N)c4)nc3)cc1)CC2` , give the reported IC50.
**Result** 610

**Query** Please report the recorded IC50 for `COc1cc2c(cc1OC)CN(CCc1ccc(NC(=O)/C=C/c3ccc(Oc4ccc(-c5ccccn5)cc4Br)nc3)cc1)CC2` .
**Result** 700

**Query** Which IC50 value is on record for `COc1cc2c(cc1OC)CN(CCc1ccc(NC(=O)/C=C/c3ccc(Oc4ccc(-c5ccccn5)cc4I)nc3)cc1)CC2` ?
**Result** 760

**Query** Query: IC50; subject: COc1cc2c(cc1OC)CN(CCc1ccc(NC(=O)C(O)c3c(-c4ccccc4)n(C)c4ccccc34)cc1)CC2 (configuration not stated)
**Result** 1100
